Tested on: right ventricular papillary muscle
Test: in vitro inotropic activity (isolated right ventricular papillary muscle)
Type: cell-based, guinea-pig
Details: Cavia porcellus; 75% increase in basal contractile force (Fc); carazolol 5×10^-8 M present; 34° C.; cumulative additions; read-out: Potency for 75% increase Fc lying within the range
Counter-ions that a name gives are not always drawn.
Kindly state EC75 for each of the entries shown.

Entry under review: COc1cc(S(C)(=O)=O)ccc1-c1nc2cnccc2[nH]1 [Example 32] . Reported EC75?
100 to 1000 µM

Entry under review: COc1ccc(-c2nc3cnccc3[nH]2)cc1OC [Example 8, dihydrochloride] . Reported EC75?
10 to 100 µM

Entry under review: COc1ccc(-c2nc3cnccc3n2C)c(OC)c1 [Example 41] . Reported EC75?
> 1000 µM

Entry under review: COc1cc(-c2nc3cnccc3[nH]2)cc(OC)c1OC [Example 3, dihydrochloride] . Reported EC75?
> 1000 µM

Entry under review: COc1ccccc1-c1nc2cnccc2[nH]1 [Example 7, hydrochloride] . Reported EC75?
100 to 1000 µM

Entry under review: COc1ccc(-c2nc3cnccc3[nH]2)cc1[S+](C)[O-] (stereo not drawn) [Example 35] . Reported EC75?
> 1000 µM

Entry under review: COc1cc(Cl)ccc1-c1nc2cnccc2[nH]1 [Example 10, hydrochloride] . Reported EC75?
10 to 100 µM

Entry under review: COc1ccc(-c2nc3c[n+]([O-])ccc3[nH]2)c(OC)c1 [Example 38, hydrate] . Reported EC75?
> 1000 µM

Entry under review: COc1ccc(-c2nc3ccncc3n2C)c(OC)c1 [Example 40] . Reported EC75?
> 1000 µM
